target: NK-1 receptor (Homo sapiens); assay: NK-1 receptor-binding test ([3H]-Substance P, hNK1-CHO cells); design: expressed in transfected cells; host or cells: CHO-K1 cells (ATCC: CCL-61), G418-resistant, hNK1-CHO
Sequence (P25103 whole entry): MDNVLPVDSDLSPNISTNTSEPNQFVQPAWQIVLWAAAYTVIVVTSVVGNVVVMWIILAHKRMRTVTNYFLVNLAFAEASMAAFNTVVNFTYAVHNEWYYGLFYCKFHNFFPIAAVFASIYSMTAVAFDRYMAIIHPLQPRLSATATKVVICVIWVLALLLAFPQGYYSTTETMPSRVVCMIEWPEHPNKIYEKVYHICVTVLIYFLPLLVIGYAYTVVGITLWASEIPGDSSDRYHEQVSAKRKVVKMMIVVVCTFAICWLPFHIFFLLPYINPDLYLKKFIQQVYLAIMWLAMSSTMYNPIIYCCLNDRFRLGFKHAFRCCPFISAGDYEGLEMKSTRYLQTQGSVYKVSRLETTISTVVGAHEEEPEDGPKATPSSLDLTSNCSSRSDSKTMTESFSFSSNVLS
Where a name gives a salt, the structure may show the parent alone.
reported-endpoint: pIC50
Answer as the number alone; pIC50 is minus log10 of concentration in mol/L.

CN(C[C@](CCCN1CCC2(CC1)c1ccccc1C[S@+]2[O-])(c1ccc(Cl)c(Cl)c1)N(C)C(=O)Oc1ccc(Cl)cc1)C(=O)CC(F)(F)F [Compound No. 633, hydrochloride]; 8.08

GET /values?readout=pIC50&item= CN(C[C@](CCCN1CCC2(CC1)c1ccccc1C[S@+]2[O-])(c1ccc(Cl)c(Cl)c1)N(C)C(=O)Oc1ccc(Cl)c(Cl)c1)C(=O)CC(F)(F)F [Compound No. 654, hydrochloride]
8.52

GET /values?readout=pIC50&item= CN(C[C@](CCCN1CCC2(CC1)c1ccccc1C[S@+]2[O-])(c1ccc(Cl)c(Cl)c1)N(C)C(=O)Oc1cccc(F)c1)C(=O)CC(F)(F)F [Compound No. 634, hydrochloride]
8.70

GET /values?readout=pIC50&item= CN(C[C@](CCCN1CCC2(CC1)c1ccccc1C[S@+]2[O-])(c1ccc(Cl)c(Cl)c1)N(C)C(=O)Oc1ccccc1)C(=O)C(F)(F)F [Compound No. 642, hydrochloride]
8.43

GET /values?readout=pIC50&item= CN(C[C@](CCCN1CCC2(CC1)c1ccccc1C[S@+]2[O-])(c1ccc(Cl)c(Cl)c1)N(C)C(=O)Oc1ccc(F)cc1)C(=O)CC(F)(F)F [Compound No. 639, hydrochloride]
8.40

GET /values?readout=pIC50&item= COc1cc(COCC(CCCN2CCC(C(N)=O)(c3ccccc3)CC2)(c2ccc(Cl)c(Cl)c2)N(C)C(=O)Oc2ccccc2)cc(OC)c1OC (racemic) [Compound No. 17, hydrochloride]
8.82
